# Tested on: eye (cornea, iris, conjunctiva)
# TEST_DETAILS: primary eye irritation (Draize) in rabbits
# Format: in vivo, white native male rabbits
# STUDY_CONDITIONS: 2.4% soln; 6 hours; average of three rabbits
Reported Primary irritation score, Conjunctiva values are given for each entry in this list.

Reference set, count: 4
- COMPOUND: "CCCCCCCCCCCCOS(=O)(=O)[O-].[Na+] [Sodium Laurylsulfate, sodium laurylsulfate, reference compound]"
  TARGET_UNDER_TEST: "eye (cornea, iris, conjunctiva)"
  Primary irritation score, Conjunctiva: 11.3
- COMPOUND: "CCCCCCCC(=O)OCC(COC(=O)[C@@H]1CCC(=O)N1)OC(=O)CCCCCCC (some centres unmarked)"
  TARGET_UNDER_TEST: "eye (cornea, iris, conjunctiva)"
  Primary irritation score, Conjunctiva: 2.0
- COMPOUND: "CCCCCCCC/C=C\\CCCCCCCC(=O)OCC(O)COC(=O)[C@@H]1CCC(=O)N1 (some centres unmarked)"
  TARGET_UNDER_TEST: "eye (cornea, iris, conjunctiva)"
  Primary irritation score, Conjunctiva: 1.3
- COMPOUND: "CCCCCCCCCCCC(=O)OCC(O)COC(=O)[C@@H]1CCC(=O)N1 (some centres unmarked)"
  TARGET_UNDER_TEST: "eye (cornea, iris, conjunctiva)"
  Primary irritation score, Conjunctiva: 1.3

// below: Primary irritation score, Conjunctiva requested for another compound
input: Assign Primary irritation score, Conjunctiva to the following record: CCC=CCCCCCCCCOCC(O)COC(=O)[C@@H]1CCC(=O)N1 (some centres unmarked)
output: 1.3

* * *

# System: eye (cornea, iris, conjunctiva)
# TEST_DETAILS: primary eye irritation (Draize) in rabbits
# Type: in vivo, white native male rabbits
# STUDY_CONDITIONS: 2.4% soln; 1 hour; average of three rabbits
Measured Primary irritation score, Iris, listed per entry for reference.
Answer as a number with no unit attached.

The examples below pair each entry with its known result.
- MOLECULE: "CCCCCCCC(=O)OCC(COC(=O)[C@@H]1CCC(=O)N1)OC(=O)CCCCCCC (stereo partly drawn)"
  Primary irritation score, Iris: 0
- MOLECULE: "CCC=CCCCCCCCCOCC(O)COC(=O)[C@@H]1CCC(=O)N1 (stereo partly drawn)"
  Primary irritation score, Iris: 0

Shifting focus to the molecule that follows.
input: Determine reported Primary irritation score, Iris for CCCCCCCCC1(CCCCCCCC)OCC(COC(=O)C2CCC(=O)N2)O1 (stereo not drawn) ; test system: eye (cornea, iris, conjunctiva).
output: 0

* * *

Recorded Percentage inhibition vs. control, one value per entry.
# System: carrageenan edema
# TEST_DETAILS: carrageenan edema inhibiting effect of betamethasone valerate ointments
# Format: in vivo, rat
# STUDY_CONDITIONS: 3 hrs; Table 5, betamethasone valerate ointment with penetration enhancer

- COMPOUND: "CCCCCCCCCCCCCCCCCCOCC(O)COC(=O)[C@@H]1CCC(=O)N1 (stereo partly shown)"
  TARGET_UNDER_TEST: "carrageenan edema"
  Percentage inhibition vs. control: "17.8%"
- COMPOUND: "CCC=CCCCCCCCCOCC(O)COC(=O)[C@@H]1CCC(=O)N1 (stereo partly shown)"
  TARGET_UNDER_TEST: "carrageenan edema"
  Percentage inhibition vs. control: "16.4%"
- COMPOUND: "CCCCC(=O)OCC(COC(=O)[C@@H]1CCC(=O)N1)OC(=O)CCCC (stereo partly shown)"
  TARGET_UNDER_TEST: "carrageenan edema"
  Percentage inhibition vs. control: "18.0%"
- COMPOUND: "CCCCCCCC/C=C\\CCCCCCCC(=O)OCC(COC(=O)C1CCC(=O)N1)OC(=O)CCCCCCC/C=C\\CCCCCCCC (stereo not shown)"
  TARGET_UNDER_TEST: "carrageenan edema"
  Percentage inhibition vs. control: "17.9%"
- COMPOUND: "CCCCCCCCOCC(COC(=O)[C@@H]1CCC(=O)N1)OCCCCCCCC (stereo partly shown)"
  TARGET_UNDER_TEST: "carrageenan edema"
  Percentage inhibition vs. control: "20.2%"
- COMPOUND: "CCCCCCCCCCCCCCCCCC(=O)OCC(O)COC(=O)[C@@H]1CCC(=O)N1 (stereo partly shown)"
  TARGET_UNDER_TEST: "carrageenan edema"
  Percentage inhibition vs. control: "15.3%"
- COMPOUND: "CCCCCCCCCCCCCCCCCCOCC(COC(=O)[C@@H]1CCC(=O)N1)OCCCCCCCCCCCCCCCCCC (stereo partly shown)"
  TARGET_UNDER_TEST: "carrageenan edema"
  Percentage inhibition vs. control: "19.5%"
- COMPOUND: "CCCCCCOCC(O)COC(=O)[C@@H]1CCC(=O)N1 (stereo partly shown)"
  TARGET_UNDER_TEST: "carrageenan edema"
  Percentage inhibition vs. control: "18.3%"

input: Supply reported Percentage inhibition vs. control belonging to this compound: CCCCCCCCCCCC(=O)OCC(O)COC(=O)[C@@H]1CCC(=O)N1 (stereo partly shown)
output: 18.1%

input: Answer with the recorded Percentage inhibition vs. control of CCCCCCCCC1(CCCCCCCC)OCC(COC(=O)C2CCC(=O)N2)O1 (stereo not shown) only.
output: 18.2%
